What AC50 was measured for each of the following?

# input Request - read-out AC50 | tested on Alpha-2A adrenergic receptor (Homo sapiens, UniProt P08913) | compound "Nc1ccc2cc3ccc(N)cc3nc2c1"
# output 7.27 µM

# input Quick check: AC50 on Alpha-2A adrenergic receptor (Homo sapiens, UniProt P08913), item CCCNC(C)C(=O)Nc1c(C)csc1C(=O)OC (stereo not given) ?
# output > 30 µM

# input Could you share what AC50 was measured for "Cc1cn([C@H]2C=C[C@@H](CO)O2)c(=O)[nH]c1=O" , tested on Alpha-2A adrenergic receptor (Homo sapiens, UniProt P08913)?; also: assay procedure not described here
# Sequence (P08913 whole entry): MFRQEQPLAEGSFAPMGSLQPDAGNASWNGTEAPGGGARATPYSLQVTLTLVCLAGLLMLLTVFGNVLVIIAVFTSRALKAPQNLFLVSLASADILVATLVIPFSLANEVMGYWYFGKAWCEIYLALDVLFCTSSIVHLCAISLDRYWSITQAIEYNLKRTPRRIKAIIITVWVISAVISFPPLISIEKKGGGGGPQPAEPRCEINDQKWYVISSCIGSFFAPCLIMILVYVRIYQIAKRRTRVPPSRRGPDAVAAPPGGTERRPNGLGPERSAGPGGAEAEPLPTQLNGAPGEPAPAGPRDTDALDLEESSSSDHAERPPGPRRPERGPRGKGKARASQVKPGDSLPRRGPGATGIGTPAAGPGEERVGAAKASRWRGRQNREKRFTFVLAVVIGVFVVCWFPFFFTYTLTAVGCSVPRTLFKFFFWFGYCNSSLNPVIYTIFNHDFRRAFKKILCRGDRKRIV
# output > 30 µM

# input API: value(readout= AC50, system= Alpha-2A adrenergic receptor (Homo sapiens, UniProt P08913), query= O=C(CCNNC(=O)c1ccncc1)NCc1ccccc1 [NIALAMIDE] ); also: assay procedure not described here
# output > 30 µM

# input Under Alpha-2A adrenergic receptor (Homo sapiens, UniProt P08913): AC50 value of "COC(c1ccccc1)(c1ccccc1)[C@H](Oc1nc(C)cc(C)n1)C(=O)O" ?
# output > 30 µM

* * *

Measured endpoint: AC50

# input What AC50 appears in the records for this compound with Beta-2 adrenergic receptor (Homo sapiens, UniProt P07550)? C=CCC1(C(C)CC)C(=O)NC(=O)NC1=O (stereo not given)
# Sequence (P07550 whole entry): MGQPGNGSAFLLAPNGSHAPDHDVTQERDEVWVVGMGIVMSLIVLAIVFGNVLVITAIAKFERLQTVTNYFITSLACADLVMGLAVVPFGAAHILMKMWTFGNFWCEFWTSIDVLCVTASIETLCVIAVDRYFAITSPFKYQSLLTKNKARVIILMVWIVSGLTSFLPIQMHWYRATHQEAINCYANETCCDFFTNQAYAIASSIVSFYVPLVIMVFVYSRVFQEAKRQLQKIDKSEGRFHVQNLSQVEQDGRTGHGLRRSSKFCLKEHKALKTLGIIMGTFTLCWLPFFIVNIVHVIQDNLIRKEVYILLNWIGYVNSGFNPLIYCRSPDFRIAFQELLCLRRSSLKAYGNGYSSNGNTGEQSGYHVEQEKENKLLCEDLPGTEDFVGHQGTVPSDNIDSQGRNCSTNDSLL
# output > 10 µM

# input Requested read-out AC50, target or system Beta-2 adrenergic receptor (Homo sapiens, UniProt P07550), entry CCCN1C[C@H](CSC)C[C@@H]2c3cccc4[nH]cc(c34)C[C@H]21 [PERGOLIDE]; also: assay procedure not described here
# output > 10 µM

# input Field: AC50 (Beta-2 adrenergic receptor (Homo sapiens, UniProt P07550)). Entry: "CN1C(=O)OC(C)(C)C1=O"
# output > 10 µM

# input Kindly state the measured AC50 obtained for "COc1ccccc1N1CCN(CCCNc2cc(=O)n(C)c(=O)n2C)CC1" with Beta-2 adrenergic receptor (Homo sapiens, UniProt P07550).
# output 0.8 µM

# input Fill in the recorded AC50 for this compound, with Beta-2 adrenergic receptor (Homo sapiens, UniProt P07550) as test system: "COc1cc2nc(N3CCN(C(=O)c4ccco4)CC3)nc(N)c2cc1OC"
# output > 10 µM

* * *

Molecular target: Thromboxane A2 receptor (Homo sapiens, UniProt P21731); also: assay procedure not described here
Sequence (P21731 whole entry): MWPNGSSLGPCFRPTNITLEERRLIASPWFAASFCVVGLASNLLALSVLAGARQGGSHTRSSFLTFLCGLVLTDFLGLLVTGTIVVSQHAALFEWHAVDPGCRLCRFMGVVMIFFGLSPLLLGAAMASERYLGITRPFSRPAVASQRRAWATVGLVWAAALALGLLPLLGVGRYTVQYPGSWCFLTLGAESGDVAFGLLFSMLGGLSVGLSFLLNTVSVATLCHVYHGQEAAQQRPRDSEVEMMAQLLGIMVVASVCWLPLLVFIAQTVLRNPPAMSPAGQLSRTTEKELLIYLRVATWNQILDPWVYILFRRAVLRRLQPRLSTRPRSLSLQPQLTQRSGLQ
Measured endpoint: AC50

# input Dear colleague, I am looking for the recorded AC50 of the following compound: O=C(O)/C=C/c1ccc(Cn2ccnc2)cc1 [OZAGREL]
# output > 30 µM

# input Which value of AC50 has been reported for COC(=O)[C@H]1[C@H]2C[C@@H]3c4[nH]c5cc(OC)ccc5c4CCN3C[C@H]2C[C@@H](OC(=O)/C=C/c2cc(OC)c(OC)c(OC)c2)[C@@H]1OC [RESCINNAMINE] in the records?
# output > 10 µM

# input Form field: reported AC50 of CC(C[N+](C)(C)C)OC(N)=O (stereo not given) [BETHANECHOL]
# output > 10 µM

# input Quick check: AC50 of Cn1c(=O)c2c(ncn2CC2OCCO2)n(C)c1=O [DOXOFYLLINE] ?
# output > 30 µM

# input Find the recorded AC50 belonging to CCCC(=O)O[C@]1(C(=O)CO)CC[C@H]2[C@@H]3CCC4=CC(=O)CC[C@]4(C)[C@H]3[C@@H](O)C[C@@]21C [HYDROCORTISONE BUTYRATE] and report it.
# output > 10 µM

# input Fill in: AC50 of CCc1c(Cl)c(O)c(Cl)c(O)c1C(=O)O[C@H]1[C@H](O)[C@H](OC)[C@H](OC/C2=C\C=C\C[C@H](O)/C(C)=C/[C@H](CC)[C@@H](O[C@@H]3OC(C)(C)[C@@H](OC(=O)C(C)C)[C@H](O)[C@@H]3O)/C(C)=C/C(C)=C/C[C@@H]([C@@H](C)O)OC2=O)O[C@@H]1C [FIDAXOMICIN] is ___
# output > 30 µM

# input Reported AC50 for "CCOC(=O)[C@H](CCc1ccccc1)N[C@@H](C)C(=O)N1C(=O)N(C)C[C@H]1C(=O)O" : what is it?
# output > 30 µM

# input Looking for the measured AC50 of CN1C(=O)CCS(=O)(=O)C1c1ccc(Cl)cc1 (stereo not given) [CHLORMEZANONE] , can you help?
# output > 10 µM

# input Given the compound CC(=O)NCCCS(=O)(=O)O [ACAMPROSATE] , what is its reported AC50?
# output > 30 µM

# input Could you tell me which AC50 is on file for Cc1cccc(Nc2ccccc2C(=O)O)c1C [MEFENAMIC ACID] ?
# output > 10 µM

# input Quick one: AC50 for Cc1ccc(-n2nccn2)c(C(=O)N2CCN(c3nc4cc(Cl)ccc4o3)CC[C@H]2C)c1 [SUVOREXANT] ?
# output > 10 µM

# input Requested read-out: AC50. Entry: CC(C)(C)c1cc(C(C)(C)C)c(NC(=O)c2c[nH]c3ccccc3c2=O)cc1O [IVACAFTOR]
# output 22 µM

# input Dear colleague, I am looking for the recorded AC50 of the following compound: NCC[C@H](O)C(=O)N[C@@H]1C[C@H](N)[C@@H](O[C@H]2O[C@H](CN)[C@@H](O)[C@H](O)[C@H]2O)[C@H](O)[C@H]1O[C@H]1O[C@H](CO)[C@@H](O)[C@H](N)[C@H]1O [AMIKACIN]
# output > 10 µM

# input // query AC50 value for entry "CCOC(=O)[C@H](CCc1ccccc1)N[C@@H](C)C(=O)N1[C@H](C(=O)O)C[C@@H]2CCC[C@@H]21"
# output > 30 µM

# input Which measured AC50 value corresponds to Cc1c(C(=O)NN2CCCCC2)nn(-c2ccc(Cl)cc2Cl)c1-c1ccc(Cl)cc1 [RIMONABANT] ?
# output 18.6 µM
